These measurements were taken from paper PMC8175309.

Quick list: efflux ratio at 1 h, 1 μM per entry.
Molecular target: MDR1 (Homo sapiens, UniProt P08183)
Sequence (P08183 whole entry): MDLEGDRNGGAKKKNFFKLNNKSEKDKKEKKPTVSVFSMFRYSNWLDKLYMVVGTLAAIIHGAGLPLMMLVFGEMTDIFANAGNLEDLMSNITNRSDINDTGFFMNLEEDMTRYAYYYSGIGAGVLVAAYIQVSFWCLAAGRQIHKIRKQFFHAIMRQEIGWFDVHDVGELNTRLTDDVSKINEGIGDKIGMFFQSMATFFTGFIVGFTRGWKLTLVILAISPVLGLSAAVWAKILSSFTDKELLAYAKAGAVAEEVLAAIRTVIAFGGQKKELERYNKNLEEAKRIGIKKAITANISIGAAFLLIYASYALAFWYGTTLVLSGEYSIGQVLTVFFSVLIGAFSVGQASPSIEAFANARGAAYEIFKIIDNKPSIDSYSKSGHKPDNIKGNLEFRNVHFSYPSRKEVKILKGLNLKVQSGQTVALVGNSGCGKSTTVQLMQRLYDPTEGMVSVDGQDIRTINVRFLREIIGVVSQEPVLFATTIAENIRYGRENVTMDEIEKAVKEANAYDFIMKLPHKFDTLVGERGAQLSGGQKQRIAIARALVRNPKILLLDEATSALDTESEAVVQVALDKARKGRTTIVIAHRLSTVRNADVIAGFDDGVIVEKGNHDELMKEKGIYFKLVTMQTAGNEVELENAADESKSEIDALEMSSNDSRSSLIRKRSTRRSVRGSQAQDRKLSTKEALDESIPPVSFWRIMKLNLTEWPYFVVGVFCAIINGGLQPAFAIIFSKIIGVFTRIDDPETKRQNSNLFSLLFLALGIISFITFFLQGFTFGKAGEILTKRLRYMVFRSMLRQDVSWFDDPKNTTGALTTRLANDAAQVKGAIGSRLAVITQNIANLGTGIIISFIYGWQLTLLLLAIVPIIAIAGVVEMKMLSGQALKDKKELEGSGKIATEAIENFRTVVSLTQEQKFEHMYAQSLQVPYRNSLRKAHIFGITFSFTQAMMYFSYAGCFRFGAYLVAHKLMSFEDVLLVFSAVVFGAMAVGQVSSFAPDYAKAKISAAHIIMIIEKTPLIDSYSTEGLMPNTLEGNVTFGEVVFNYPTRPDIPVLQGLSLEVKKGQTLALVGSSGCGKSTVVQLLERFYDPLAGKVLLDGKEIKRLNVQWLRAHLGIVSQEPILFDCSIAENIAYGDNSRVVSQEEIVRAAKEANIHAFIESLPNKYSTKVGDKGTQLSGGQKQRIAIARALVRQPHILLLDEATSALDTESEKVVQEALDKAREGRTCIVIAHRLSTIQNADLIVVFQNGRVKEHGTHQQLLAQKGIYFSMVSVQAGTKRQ
Test: in vitro
Settings: dog, MDCK-MDR1, pH 7.4

molecule	efflux ratio at 1 h, 1 μM
COc1cc([C@@H]2c3cc4c(cc3[C@@H](O[C@@H]3O[C@@H]5CO[C@@H](C)O[C@H]5[C@H](O)[C@H]3O)[C@H]3COC(=O)[C@H]23)OCO4)cc(OC)c1O [Etoposide]	6.1
Nc1c2c(nc3ccccc13)CCCC2	1
Cc1cc(=O)n(-c2ccccc2)n1C [Antipyrine]	0.9
CC1(C)O[C@@H]2[C@@H](CO[C@@]3(COS(N)(=O)=O)OC(C)(C)O[C@@H]23)O1 [Topiramate]	25
COc1cc2nc(N3CCN(C(=O)c4ccco4)CC3)nc(N)c2cc1OC	52
